Here's a batch of compounds along with measured pIC50 for cGMP PDE5 (UniProt O76074).
pIC50: −log10 of the molar value.

# structure as smiles, pIC50
rows = [
    ("CCCn1nc(Cc2ccccc2)c2c(=O)[nH]c(-c3cc(S(=O)(=O)N4CCN(C)CC4)ccc3OCC)nc21", 8.25),
    ("CCCn1nc(-c2cnccn2)c2c(=O)[nH]c(-c3cc(S(=O)(=O)N4CCN(CC)CC4)cnc3OCC)nc21", 8.12),
    ("CCOc1ncc(S(=O)(=O)N2CCN(CC)CC2)cc1-c1nc2c(c(-c3cnccn3)nn2CC)c(=O)[nH]1", 8.09),
]
